Source of measurements: PubChem BioAssay (NCATS)

- Tested on: OV90
- ASSAY_NOTES: Primary qHTS to identify gynecologic anti-cancer compounds using libraries of approved drugs and bioactive compounds (AID 1345084); also: % is scaled to controls: 0 for no effect and ±100 for the full control effect; nearly all actives have a fitted effect of over 55% in size
- DETAILS: Gynecologic cancer cell panel viability, ATPlite luminescence, 48 h; series mostly up to 57.5 µM
Inconclusive results are not listed. Activity calls are given as the source filed them. Calls follow the shape of the dose curve; as a rule, active = well fitted cell-killing curve with a large enough effect; inconclusive = small, poorly fitted or top-dose-only effect, or effect the other way; inactive = flat fitted curve, though single readings scatter. Where a SMILES comes first, the peptide text is derived from it. [ ]: non-standard residue; d: D form. PhLac = O=C(O)[CH](O)Cc1ccccc1; NMeV = CN[CH](C(=O)O)C(C)C
MEASURED_METRIC: activity change, negative = cytotoxicity

Worked set:
CC(=O)c1c(O)cc2cccc3c2c1CC(C)(O)O3 (stereo unspecified) :: inactive
CC(C)(O)c1ccc2c(c1)C(=O)CC1[C@](C)(CO)CCC[C@]21C (stereo partly specified) :: inactive
CC(CCC1(O)OC2CC3C4CCC5CC(O[C@@H]6O[C@H](CO)[C@@H](O)[C@H](O)[C@H]6O[C@@H]6OC[C@@H](O)[C@H](O)[C@H]6O)C(O)CC5(C)C4CCC3(C)C2C1C)CO[C@@H]1O[C@H](CO)[C@@H](O)[C@H](O)[C@H]1O (stereo partly specified) :: -1.54% [at 11.6 µM] (inactive)
CC(C)C(C(=O)N1CCCC1C(=O)O)N(C)C(=O)C(O)Cc1ccccc1 (stereo unspecified) (H-[PhLac]-[NMeV]-Pro-OH; configuration not given here) :: inactive
C[C@@H]1O[C@@H](O[C@H]2[C@H](OC(=O)C34CCC5(C)C(=CCC6C7(C)CC(O)C(O[C@@H]8O[C@H](C(=O)O)[C@@H](O)[C@H](O)[C@H]8O)C(C)(C(=O)O)C7CCC65C)C3CC(C)(C)CC4O)O[C@H](C)[C@@H](O)[C@@H]2O)[C@H](O)[C@@H](O[C@@H]2OC[C@](O)(CO)[C@H]2O[C@@H]2O[C@H](CO)[C@@H](O)[C@H](O)[C@H]2O)[C@H]1O (stereo partly specified) :: -2.48% [at 6.55 µM] (inactive)

Kindly review the next compound as well.
Param request: activity change, negative = cytotoxicity | system OV90 | item CC1=CC(=O)C2C(C)(C)CC(O)CC2(C)C1CO (stereo unspecified)
inactive
